These measurements were taken from patent US20060069132A1.

# System: giant foxtail
# test: Test C pre-/postemergence herbicide test
# Type: in vivo, Setaria faberi
# protocol.conditions: Postemergence, 500 g ai/ha; scale 0 to 100

{"columns": ["cpd.smiles", "Foxtail, Giant plant response rating"],
 "data": [
  ["CCc1nc(C(C)(C)C)sc1C(=O)Nc1cccc(C(=O)NCC2CC2)c1", 60],
  ["C#CCNC(=O)c1cccc(NC(=O)c2cc(C(C)(C)C)nn2CC)n1", 45],
  ["C=CCNC(=O)c1cccc(NC(=O)c2cc(C(C)(C)C)nn2C)n1", 10],
  ["C=Cn1nc(C(C)(C)C)cc1C(=O)Nc1cccc(C(=O)N(CC)CC)c1", 40]
]}

----------
# System: pigweed
# test: Test C pre-/postemergence herbicide test
# Type: in vivo, Amaranthus retroflexus
# protocol.conditions: postemergence; 62 g ai/ha; scale 0 to 100
In this section, each of the molecules is paired with its reported Plant response rating, Pigweed.
experimental.readout: Plant response rating, Pigweed

{"columns": ["cpd.smiles", "tgt", "experimental.readout", "value.measured"],
 "data": [
  ["CCOC(=O)c1cccc(NC(=O)c2cc(C3(C)CC3)nn2CC)c1", "pigweed", "Plant response rating, Pigweed", 80],
  ["C#CCNC(=O)c1cccc(NC(=O)c2cc(C(C)(C)C)nn2CC)n1", "pigweed", "Plant response rating, Pigweed", 90],
  ["CCc1nc(C(C)(C)C)sc1C(=O)Nc1cccc(C(=O)NCC2CC2)c1", "pigweed", "Plant response rating, Pigweed", 50],
  ["CCn1nc(C(C)(C)C)cc1C(=O)Nc1cccc(C(=O)NC2CC2)c1", "pigweed", "Plant response rating, Pigweed", 100],
  ["C=CCNC(=O)c1cccc(NC(=O)c2cc(C(C)(C)C)nn2C)n1", "pigweed", "Plant response rating, Pigweed", 100]
]}

----------
# Tested on: morningglory
# test: Test A pre-/postemergence herbicide test
# Type: in vivo, Ipomoea spp.
# protocol.conditions: Preemergence, 2000 g ai/ha; 0 to 100 scale, 0 no effect, 100 complete control
Entry flag: 1.0 if Morningglory plant response rating reaches 50; 0.0 if it does not.

{"columns": ["cpd.smiles", "answer.label"],
 "data": [
  ["CCOC(=O)c1cc(NC(=O)c2cc(C(C)(C)C)nn2CC)ccc1F", 0.0],
  ["CCN1CCc2c(NC(=O)c3cc(C(C)(C)C)nn3CC)cccc2C1=O", 1.0],
  ["CN1Cc2c(NC(=O)c3cc(C(C)(C)C)nn3C)cccc2C1=O", 0.0],
  ["CCn1nc(C(C)(C)C)cc1C(=O)Nc1cccc(C(=O)NCC2CC2)c1", 1.0]
]}

----------
# Tested on: Surinam grass
# test: Test B pre-/postemergence herbicide test
# Format: in vivo, Urochloa decumbens
# protocol.conditions: Preemergence, 500 g ai/ha; scale 0 to 100

{"columns": ["compound", "Surinam Grass plant response rating"],
 "data": [
  ["CCN(CC)C(=O)c1cccc(NC(=O)c2cc(C(C)(C)C)nn2CCF)c1 [Compound 36]", 50],
  ["CCn1nc(C(C)(C)C)cc1C(=O)Nc1cccc(C(=O)NCCF)c1 [Compound 45]", 50],
  ["C=CCn1nc(C(C)(C)C)cc1C(=O)Nc1cccc(C(=O)NCC)c1 [Compound 56]", 60],
  ["CCn1nc(C(C)(C)C)cc1C(=O)Nc1cccc(C(=O)NC(C)C)c1 [Compound 51]", 80]
]}
